A collection of molecules and their measured Microsomal Stability, third value (mouse)
# assay_notes: Metabolic stability, mouse liver microsomes
# Format: in vitro ADME
# condition_details: CSV, order h/r/m as in the tables
Lab note: write the figure by itself, no unit.

Known Microsomal Stability, third value (mouse) results, listed for orientation:
Dear colleague, I am looking for the recorded Microsomal Stability, third value (mouse) of the following molecule: COc1cc2c(cc1Oc1cccc(S(=O)(=O)N(C)C)c1)N(C(=O)c1cc3ccccc3[nH]1)CC21CCN(C)CC1
710

Dear colleague, I am looking for the recorded Microsomal Stability, third value (mouse) of the following molecule: COc1cc2c(cc1OCc1cccc(F)c1)N(C(=O)c1cc3ccccc3[nH]1)CC21CCN(C)CC1
70.8

Dear colleague, I am looking for the recorded Microsomal Stability, third value (mouse) of the following molecule: COc1cc2c(cc1CCc1ccccc1)N(C(=O)c1cc3ccccc3[nH]1)CC21CCNCC1
45.7

Dear colleague, I am looking for the recorded Microsomal Stability, third value (mouse) of the following molecule: COc1cc2c(cc1OCc1ccccc1)N(C(=O)c1cc3cnccc3[nH]1)CC21CCN(C)CC1
48.8

Dear colleague, I am looking for the recorded Microsomal Stability, third value (mouse) of the following molecule: COc1cc2c(cc1OCc1ccccc1)N(C(=O)c1cc3cc(F)ccc3[nH]1)CC21CCN(C)CC1
45.7

---
Dear colleague, I am looking for the recorded Microsomal Stability, third value (mouse) of the following molecule: COc1cc2c(cc1OCc1ccccc1)N(C(=O)c1cc3ccccc3[nH]1)CC21CCN(C)CC1
109

Dear colleague, I am looking for the recorded Microsomal Stability, third value (mouse) of the following molecule: COc1cc2c(cc1OCc1ccc(F)cc1)N(C(=O)c1cc3ccccc3[nH]1)CC21CCN(C)CC1
72.9

###

# assay_notes: Aqueous solubility assay, miniaturized shake flask
# Format: physicochemical
# condition_details: pH 6.5, Solubility PBS Ph 6.5
A collection of compounds and their measured solubility at 20 h
# value in µM; strip the unit string

Known solubility at 20 h results, listed for orientation:
Dear colleague, I am looking for the recorded solubility at 20 h of the following compound: COc1cc2c(cc1OCc1ccccc1)N(C(=O)CN1CCN(C)CC1)CC21CCN(C)CC1
190

Dear colleague, I am looking for the recorded solubility at 20 h of the following compound: C#CCOc1cc2c(cc1OC)C1(CCN(C)CC1)CN2C(=O)c1cc2ccccc2[nH]1
190

Dear colleague, I am looking for the recorded solubility at 20 h of the following compound: COc1cc2c(cc1OCc1ccccc1)N(C(=O)c1cc3ccccc3o1)CC21CCN(C)CC1
150

Proceed to the following item.
Dear colleague, I am looking for the recorded solubility at 20 h of the following compound: COc1cc2c(cc1OCC1CC1)N(C(=O)c1cc3ccccc3[nH]1)CC21CCN(C)CC1
185

###

# assay_notes: Metabolic stability, rat liver microsomes
# Format: in vitro ADME
# condition_details: pH 7.4; rat liver microsomes, not corrected for microsomal binding; read-out: LM CLint,app rat
# label = TRUE if CLint scaled at 0.5 h, 1 µM >= 60 mL/min/kg else FALSE

Solved cases (2 shown):
Does CLint scaled at 0.5 h, 1 µM meet or surpass 60 mL/min/kg for COc1ccc2[nH]c(C(=O)N3CC4(CCN(C)CC4)c4cc(OC)c(OCc5ccccc5)cc43)cc2c1 ?
TRUE

Does CLint scaled at 0.5 h, 1 µM meet or surpass 60 mL/min/kg for COc1cc2c(cc1CCc1ccccc1)N(C(=O)c1cc3ccccc3[nH]1)CC21CCNCC1 ?
FALSE

---
Does CLint scaled at 0.5 h, 1 µM meet or surpass 60 mL/min/kg for COc1cc2c(cc1OCc1cccc(F)c1)N(C(=O)c1cc3ccccc3[nH]1)CC21CCN(C)CC1 ?
FALSE

Does CLint scaled at 0.5 h, 1 µM meet or surpass 60 mL/min/kg for COc1cc2c(cc1OCc1ccc(F)cc1)N(C(=O)c1cc3ccccc3[nH]1)CC21CCN(C)CC1 ?
FALSE

Does CLint scaled at 0.5 h, 1 µM meet or surpass 60 mL/min/kg for COc1cc2c(cc1Oc1cccc(S(=O)(=O)N(C)C)c1)N(C(=O)c1cc3ccccc3[nH]1)CC21CCN(C)CC1 ?
TRUE
